SYSTEM TESTED: C1b domain of human PKCθ (Homo sapiens)
Construct: Genes encoding C1b domains of human PKCα, δ, ε, θ, and PKD1 (PKCμ) were synthesized; made in house; host or cells: E. coli BL21(DE3)
Sequence (Q04759 231-281 limits assumed): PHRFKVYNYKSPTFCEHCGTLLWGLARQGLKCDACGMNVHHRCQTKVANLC
METHOD SUMMARY: Competitive 3H-PDBu binding to C1b domain of PKCθ
pKi: −log10 of the molar value.
READOUT: pKi

In the examples that follow, each entry is paired with its recorded pKi.
Request: GET /values?readout=pKi&item= CC1=C[C@H]2[C@@]3(O)[C@H](C)C[C@]4(OC(=O)CC5CC6(C5)CN(C(=O)OC(C)(C)C)C6)[C@H]([C@@H]3C=C(CO)C[C@]2(O)C1=O)C4(C)C [Compound K101-C1312]
Response: 7.52 to 9.00

Request: So what's the measured pKi for this one? CC1=C[C@H]2[C@@]3(O)[C@H](C)C[C@]4(OC(=O)[C@@H](N)C(C)(C)C)[C@H]([C@@H]3C=C(CO)C[C@]2(O)C1=O)C4(C)C [Compound K101-C1346]
Response: 7.22 to 7.52

Request: What does the record list as pKi for CC1=C[C@H]2[C@@]3(O)[C@H](C)C[C@]4(OC(=O)[C@H](N)CCCCCCCCc5ccccc5)[C@H]([C@@H]3C=C(CO)C[C@]2(O)C1=O)C4(C)C [Compound K101-C136101] ?
Response: 7.52 to 9.00

Request: Form field: reported pKi of CC1=C[C@H]2[C@@]3(O)[C@H](C)C[C@]4(OC(=O)C5CC6(C5)CN(C(=O)OC(C)(C)C)C6)[C@H]([C@@H]3C=C(CO)C[C@]2(O)C1=O)C4(C)C [Compound K101-C1311]
Response: 7.52 to 9.00

Request: Which pKi is listed for CC1=C[C@H]2[C@@]3(O)[C@H](C)C[C@]4(OC(=O)CCC5CCCC5)[C@H]([C@@H]3C=C(CO)C[C@]2(O)C1=O)C4(C)C [Compound K101-C1301] ?
Response: 7.52 to 9.00

Request: Entry CC1=C[C@H]2[C@@]3(O)[C@H](C)C[C@]4(OC(=O)CC5CC6(CNC6)C5)[C@H]([C@@H]3C=C(CO)C[C@]2(O)C1=O)C4(C)C [Compound K101-C1306] has what pKi?
Response: 6.70 to 7.00

Request: Item under review: CC1=C[C@H]2[C@@]3(O)[C@H](C)C[C@]4(OC(=O)CCc5ccc(C(F)(F)F)cc5)[C@H]([C@@H]3C=C(CO)C[C@]2(O)C1=O)C4(C)C [Compound K101-C1302] . Reported pKi?
Response: > 8.30

Request: Can you look up the measured pKi of CC1=C[C@H]2[C@@]3(O)[C@H](C)C[C@]4(OC(=O)[C@@H](N)CCCCCCCCc5ccccc5)[C@H]([C@@H]3C=C(CO)C[C@]2(O)C1=O)C4(C)C [Compound K101-C136102] for me?
Response: > 8.30

New cases:
Request: Request the reported pKi associated with CC1=C[C@H]2[C@@]3(O)[C@H](C)C[C@]4(OC(=O)[C@H](N)CCCCCCc5ccc(C(F)F)cc5)[C@H]([C@@H]3C=C(CO)C[C@]2(O)C1=O)C4(C)C [Compound K101-C137001]
Response: 7.22 to 7.52

Request: For the molecule shown here, CC1=C[C@H]2[C@@]3(O)[C@H](C)C[C@]4(OC(=O)[C@@H](N)C(C)(C)c5ccc(C(F)(F)F)cc5)[C@H]([C@@H]3C=C(CO)C[C@]2(O)C1=O)C4(C)C [Compound K101-C134902] , give the reported pKi.
Response: 8.00 to 8.30

Request: GET /values?readout=pKi&item= CC1=C[C@H]2[C@@]3(O)[C@H](C)C[C@]4(OC(=O)[C@@H](N)CCC5CCCCC5)[C@H]([C@@H]3C=C(CO)C[C@]2(O)C1=O)C4(C)C [Compound K101-C1345]
Response: 7.52 to 9.00

Request: Which measured pKi value corresponds to CC1=C[C@H]2[C@@]3(O)[C@H](C)C[C@]4(OC(=O)[C@@H](N)CC5CCCCC5)[C@H]([C@@H]3C=C(CO)C[C@]2(O)C1=O)C4(C)C [Compound K101-C1327] ?
Response: 8.00 to 8.30
